Every entry's value here was drawn from ChEMBL document CHEMBL4732135.

Test Method Notes: Stability of compound in serum (unknown origin) at 5 uM measured up to 12 hrs by HPLC analysis
Assay type: ADME, cell-free
Run Parameters: read-out: Stabilty
Square brackets hold non-standard residues; d marks the D form. Peptide text beside a SMILES is read from it. ξ: configuration not given here. Oic(3aξ,7aξ) = O=C(O)[C@@H]1CC2CCCCC2N1; Phe(4-F) = N[C@@H](Cc1ccc(F)cc1)C(=O)O
Readout Label: remaining at 12 h, 5 µM (%)
Answers are plain numbers, in %.

# input compound: CC[C@H](C)[C@H](NC(=O)[C@@H]1CC2CCCCC2N1C(=O)[C@@H](N)C(C)C)C(=O)N[C@@H](C)C(=O)O (some centres not stated) (H-V[Oic(3aξ,7aξ)]IA-OH) ; wanted: its remaining at 12 h, 5 µM
90

Please examine the following record next.
# lookup: remaining at 12 h, 5 µM of CC[C@H](C)[C@H](NC(=O)[C@@H](NC(=O)[C@@H](N)Cc1ccc(F)cc1)C(C)C)C(=O)N[C@@H](C)C(=O)O (H-[Phe(4-F)]VIA-OH)
90

----------
Assay Target: UniProt:P05067
Sequence (P05067 whole entry): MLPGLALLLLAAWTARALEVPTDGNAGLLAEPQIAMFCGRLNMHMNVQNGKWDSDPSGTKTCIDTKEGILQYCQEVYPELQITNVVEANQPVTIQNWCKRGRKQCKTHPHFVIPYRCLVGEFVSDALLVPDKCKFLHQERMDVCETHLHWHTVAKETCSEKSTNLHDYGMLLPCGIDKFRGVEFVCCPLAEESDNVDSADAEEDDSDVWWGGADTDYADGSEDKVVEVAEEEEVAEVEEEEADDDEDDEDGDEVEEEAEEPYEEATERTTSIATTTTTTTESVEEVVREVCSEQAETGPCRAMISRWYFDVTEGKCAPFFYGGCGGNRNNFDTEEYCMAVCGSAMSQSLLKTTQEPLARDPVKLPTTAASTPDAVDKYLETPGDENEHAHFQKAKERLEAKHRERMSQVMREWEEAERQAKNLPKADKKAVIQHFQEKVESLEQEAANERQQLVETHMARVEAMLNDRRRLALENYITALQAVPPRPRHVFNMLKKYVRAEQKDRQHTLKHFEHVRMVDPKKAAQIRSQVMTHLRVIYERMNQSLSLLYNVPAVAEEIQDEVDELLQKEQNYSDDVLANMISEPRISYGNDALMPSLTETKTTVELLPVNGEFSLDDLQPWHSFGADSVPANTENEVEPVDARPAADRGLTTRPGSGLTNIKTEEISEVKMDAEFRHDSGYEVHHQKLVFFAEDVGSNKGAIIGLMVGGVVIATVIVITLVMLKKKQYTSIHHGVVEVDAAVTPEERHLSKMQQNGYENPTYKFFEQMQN
Test Method Notes: Inhibition of amyloid beta (1 to 42) (unknown origin) assessed as reduction in peptide aggregation at 2 uM measured after 24 hrs by thioflavin-T fluorescence assay relative to control
Square brackets hold non-standard residues; d marks the D form. Peptide text beside a SMILES is read from it. Phe(4-CF3) = N[C@@H](Cc1ccc(C(F)(F)F)cc1)C(=O)O; Tle = CC(C)(C)[C@H](N)C(=O)O; Ac5c = NC1(C(=O)O)CCCC1; Abu = CC[C@H](N)C(=O)O
Answer each item with its documented inhibition.

Answered examples (5):
Give UniProt:P05067 inhibition for CC[C@H](C)[C@H](NC(=O)[C@@H](NC(=O)[C@@H](N)C(C)(C)C)C(C)(C)C)C(=O)N[C@@H](C)C(=O)O (H-[Tle][Tle]IA-OH)
100%

Do the same for CC(C)[C@H](N)C(=O)N[C@H](C(=O)N[C@H](C(=O)N[C@@H](C)C(=O)O)C(C)(C)C)C(C)C (H-VV[Tle]A-OH) please
0%

Repeat for the following compound: CC[C@H](C)[C@H](NC(=O)[C@@H](NC(=O)[C@@H](N)Cc1ccc(C(F)(F)F)cc1)C(C)C)C(=O)N[C@@H](C)C(=O)O (H-[Phe(4-CF3)]VIA-OH)
41.8%

Also CC[C@H](C)[C@H](NC(=O)C1(NC(=O)[C@@H](N)C(C)C)CCCC1)C(=O)N[C@@H](C)C(=O)O (H-V[Ac5c]IA-OH) ?
100%

Then "CC(C)[C@H](N)C(=O)N[C@H](C(=O)NC[C@@H]1CCCN1[C@@H](C)C(=O)O)C(C)C" ?
0%

# input for lookup
Query inhibition on UniProt:P05067 for CC[C@H](NC(=O)[C@@H](N)C(C)C)C(=O)N[C@H](C(=O)N[C@@H](C)C(=O)O)[C@@H](C)CC (H-V[Abu]IA-OH)
0%

----------
Assay Target: Amyloid-beta precursor protein (Homo sapiens)
Test Method Notes: Inhibition of amyloid beta (1 to 42) (unknown origin) assessed as reduction in peptide aggregation at 4 uM measured after 24 hrs by thioflavin-T fluorescence assay relative to control
Square brackets hold non-standard residues; d marks the D form. Peptide text beside a SMILES is read from it. Phe(4-CF3) = N[C@@H](Cc1ccc(C(F)(F)F)cc1)C(=O)O; Phe(4-Cl) = N[C@@H](Cc1ccc(Cl)cc1)C(=O)O; NMeI = CC[C@H](C)[C@H](NC)C(=O)O; Abu = CC[C@H](N)C(=O)O
Please provide measured inhibition for the entries that follow.
Numbers only, in %.

Reported inhibition, compound CC[C@H](C)[C@@H](C(=O)N[C@@H](C)C(=O)O)N(C)C(=O)[C@@H](NC(=O)[C@@H](N)C(C)C)C(C)C (H-VV[NMeI]A-OH) : ____
83.4

Count: 3. Required value per item: inhibition.
1. CC[C@H](C)[C@H](NC(=O)[C@@H](NC(=O)[C@@H](N)Cc1ccc(C(F)(F)F)cc1)C(C)C)C(=O)N[C@@H](C)C(=O)O (H-[Phe(4-CF3)]VIA-OH)
2. CC[C@H](C)[C@H](NC(=O)[C@@H](NC(=O)[C@@H](N)C(C)C)C(C)C)C(=O)N[C@@H](CC(=O)O)C(=O)O (H-VVID-OH)
3. CC[C@H](NC(=O)[C@@H](NC(=O)[C@@H](NC(=O)[C@@H](N)C(C)C)C(C)C)[C@@H](C)CC)C(=O)O (H-VVI[Abu]-OH)

20.4
100
2

Please look at the items below and tell me inhibition for each one, in order.
1. CC[C@H](C)[C@H](NC(=O)[C@@H](NC(=O)[C@@H](N)Cc1ccc(Cl)cc1)C(C)C)C(=O)N[C@@H](C)C(=O)O (H-[Phe(4-Cl)]VIA-OH)
2. CC[C@H](C)[C@H](NC(=O)[C@@H](NC(=O)[C@@H](N)C(C)C)C(C)C)C(=O)N[C@@H](CCC(=O)O)C(=O)O (H-VVIE-OH)

1: 57.4; 2: 39.3
